- Test method notes: Pharmacokinetic study after single oral dose in rabbits
- Type: in vivo
- Test conditions: male, rabbit, plasma, 2.58 mg/kg
Measure name: Cmax (ng/mL)
Write the number in ng/mL without appending the unit.

Form: compound = CC(C(=O)O)c1ccc(-c2ccccc2)c(F)c1 (stereo not shown) ; Cmax = 37300

====

- Test method notes: Pharmacokinetic study after single oral dose in rabbits
- Type: in vivo
- Test conditions: male, rabbit, plasma, 2.58 mg/kg
Measure name: AUC(0-inf) (µg·h/mL)
Write the number in µg·h/mL without appending the unit.

Form: compound = CC(C(=O)O)c1ccc(-c2ccccc2)c(F)c1 (stereo not shown) ; AUC(0-inf) = 190
